Data credit: patent US6762189B1

test system: HBV; experiment: Inhibition of HBV proliferation in HBV producing cell line HepG 2.2.15 (competitive PCR of culture supernatant); format: cell-based, Hepatitis B virus; settings: Hepatitis B virus, HepG2.2.15, 168 h; 0.01 μg/ml, HepG 2.2.15, one week; read-out: Inhibitory effect on the HBV proliferation, Inhibition activity on HBV-RT (%)
observed_property: inhibition at 0.01 µg/mL
Give the number first and the unit second.

Fill in the blank: the reported inhibition at 0.01 µg/mL of Nc1ccn([C@@H]2CS[C@H](CO)O2)c(=O)n1 [Example 3TC, lamivudine, reference compound] is ____.
48%

Fill in the blank: the reported inhibition at 0.01 µg/mL of CSc1ncc(C(=O)N(C)CCO)c(Nc2ccc3[nH]ncc3c2)n1 [Example 9] is ____.
20%

Fill in the blank: the reported inhibition at 0.01 µg/mL of CNC(=O)c1cnc(SC)nc1Nc1ccc2[nH]ncc2c1 [Example 3] is ____.
15%

Fill in the blank: the reported inhibition at 0.01 µg/mL of CSc1ncc(C(=O)NCCc2ccccn2)c(Nc2ccc3[nH]ncc3c2)n1 [Example 27] is ____.
38%

Fill in the blank: the reported inhibition at 0.01 µg/mL of CSc1ncc(C(=O)N(C)C)c(Nc2ccc3[nH]ncc3c2)n1 [Example 15] is ____.
25%

Fill in the blank: the reported inhibition at 0.01 µg/mL of CSc1ncc(C(=O)NCc2cccnc2)c(Nc2ccc3cn[nH]c3c2)n1 [Example 26] is ____.
47%

Fill in the blank: the reported inhibition at 0.01 µg/mL of CSc1ncc(C(=O)NCCc2ccccn2)c(Nc2ccc3cn[nH]c3c2)n1 [Example 28] is ____.
44%

Fill in the blank: the reported inhibition at 0.01 µg/mL of CNC(=O)c1cnc(SC)nc1Nc1ccc2cn[nH]c2c1 [Example 4] is ____.
32%

Fill in the blank: the reported inhibition at 0.01 µg/mL of CSc1ncc(C(=O)NCCN(C)C)c(Nc2ccc3cn[nH]c3c2)n1 [Example 18] is ____.
43%

====

I'd appreciate it if you could supply inhibition at 0.1 µg/mL values for the items below.
biological target: HBV polymerase (Hepatitis B virus genotype A2 subtype adw2, UniProt P03159); construct: made in house; host or cells: E. coli; assay: In vitro reverse transcription activity of HBV polymerase (ELISA-type, DIG/biotin nucleotides); assay type: biochemical; details: 0.1 μg/ml test compound; read-out: Inhibition activity on HBV-RT (%)
Sequence (P03159 whole entry): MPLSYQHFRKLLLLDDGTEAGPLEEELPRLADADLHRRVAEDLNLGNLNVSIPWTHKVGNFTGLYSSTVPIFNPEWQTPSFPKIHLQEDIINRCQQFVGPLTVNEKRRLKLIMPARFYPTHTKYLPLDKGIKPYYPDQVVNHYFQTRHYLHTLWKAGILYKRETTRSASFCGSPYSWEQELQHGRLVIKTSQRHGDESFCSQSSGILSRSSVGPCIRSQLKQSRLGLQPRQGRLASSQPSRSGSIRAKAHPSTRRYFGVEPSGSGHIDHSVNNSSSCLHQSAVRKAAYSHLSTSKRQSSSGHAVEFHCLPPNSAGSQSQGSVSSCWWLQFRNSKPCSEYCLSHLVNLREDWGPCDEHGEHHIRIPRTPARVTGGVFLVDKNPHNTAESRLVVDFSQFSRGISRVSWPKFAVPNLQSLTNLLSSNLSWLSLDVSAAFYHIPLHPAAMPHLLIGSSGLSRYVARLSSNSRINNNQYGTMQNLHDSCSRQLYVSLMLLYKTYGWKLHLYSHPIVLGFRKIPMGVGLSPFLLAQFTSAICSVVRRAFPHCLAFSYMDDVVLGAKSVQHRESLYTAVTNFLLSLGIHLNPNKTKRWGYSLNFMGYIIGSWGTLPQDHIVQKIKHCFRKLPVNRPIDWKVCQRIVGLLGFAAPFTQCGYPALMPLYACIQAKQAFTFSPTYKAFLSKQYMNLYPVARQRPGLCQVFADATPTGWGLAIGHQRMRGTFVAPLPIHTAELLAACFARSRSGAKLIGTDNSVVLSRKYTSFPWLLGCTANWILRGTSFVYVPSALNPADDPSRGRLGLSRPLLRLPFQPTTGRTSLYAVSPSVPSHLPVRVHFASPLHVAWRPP
Just the number please, in %, no unit attached.

Short answer please: inhibition at 0.1 µg/mL, HBV polymerase (Hepatitis B virus genotype A2 subtype adw2, UniProt P03159), entry CSc1ncc(C(=O)NN2CCOCC2)c(Nc2ccc3[nH]ncc3c2)n1
61

Short answer please: inhibition at 0.1 µg/mL, HBV polymerase (Hepatitis B virus genotype A2 subtype adw2, UniProt P03159), entry CSc1ncc(C(=O)NCCN2CCOCC2)c(Nc2ccc3[nH]ncc3c2)n1
39

Short answer please: inhibition at 0.1 µg/mL, HBV polymerase (Hepatitis B virus genotype A2 subtype adw2, UniProt P03159), entry CSc1ncc(C(=O)NCc2cccnc2)c(Nc2ccc3cn[nH]c3c2)n1
79

Short answer please: inhibition at 0.1 µg/mL, HBV polymerase (Hepatitis B virus genotype A2 subtype adw2, UniProt P03159), entry CSc1ncc(C(=O)NCCN(C)C)c(Nc2ccc3[nH]ncc3c2)n1
51

Short answer please: inhibition at 0.1 µg/mL, HBV polymerase (Hepatitis B virus genotype A2 subtype adw2, UniProt P03159), entry CCNC(=O)c1cnc(SC)nc1Nc1ccc2[nH]ncc2c1
52

====

Molecular target: HBV polymerase (Hepatitis B virus genotype A2 subtype adw2, UniProt P03159)
Construct: made in house; host or cells: E. coli
Assay: In vitro reverse transcription activity of HBV polymerase (ELISA-type, DIG/biotin nucleotides)
Format: biochemical
Conditions: 0.01 μg/ml test compound; read-out: Inhibition activity on HBV-RT (%)
Method: The following in vitro experiment was performed to determine the effect of the compounds of formula 1 on the activity of HBV polymerase during reverse transcription. […] The percentage of reduction in HBV polymerase activities for reverse transcription was calculated using the group without test compound as a control and the results are shown in Table 3.
I'd appreciate it if you could supply inhibition at 0.01 µg/mL values for the items below.
Give the number first and the unit second.

Short answer please: inhibition at 0.01 µg/mL, HBV polymerase (Hepatitis B virus genotype A2 subtype adw2, UniProt P03159), entry CSc1ncc(C(=O)NCCCn2ccnc2)c(Nc2ccc3cn[nH]c3c2)n1
32%

Short answer please: inhibition at 0.01 µg/mL, HBV polymerase (Hepatitis B virus genotype A2 subtype adw2, UniProt P03159), entry CSc1ncc(C(=O)NN2CCN(C)CC2)c(Nc2ccc3cn[nH]c3c2)n1
28%

Short answer please: inhibition at 0.01 µg/mL, HBV polymerase (Hepatitis B virus genotype A2 subtype adw2, UniProt P03159), entry COCCNC(=O)c1cnc(SC)nc1Nc1ccc2[nH]ncc2c1
13%

Short answer please: inhibition at 0.01 µg/mL, HBV polymerase (Hepatitis B virus genotype A2 subtype adw2, UniProt P03159), entry CNC(=O)c1cnc(SC)nc1Nc1ccc2cn[nH]c2c1
52%

Short answer please: inhibition at 0.01 µg/mL, HBV polymerase (Hepatitis B virus genotype A2 subtype adw2, UniProt P03159), entry CNC(=O)c1cnc(SC)nc1Nc1ccc2[nH]ncc2c1
34%

Short answer please: inhibition at 0.01 µg/mL, HBV polymerase (Hepatitis B virus genotype A2 subtype adw2, UniProt P03159), entry CSc1ncc(C(=O)NCCO)c(Nc2ccc3cn[nH]c3c2)n1
50%

Short answer please: inhibition at 0.01 µg/mL, HBV polymerase (Hepatitis B virus genotype A2 subtype adw2, UniProt P03159), entry CSc1ncc(C(=O)NCCc2ccccn2)c(Nc2ccc3cn[nH]c3c2)n1
52%

Short answer please: inhibition at 0.01 µg/mL, HBV polymerase (Hepatitis B virus genotype A2 subtype adw2, UniProt P03159), entry CSc1ncc(C(=O)NCCN(C)C)c(Nc2ccc3cn[nH]c3c2)n1
54%

Short answer please: inhibition at 0.01 µg/mL, HBV polymerase (Hepatitis B virus genotype A2 subtype adw2, UniProt P03159), entry CSc1ncc(C(=O)N(C)CCO)c(Nc2ccc3cn[nH]c3c2)n1
22%

Short answer please: inhibition at 0.01 µg/mL, HBV polymerase (Hepatitis B virus genotype A2 subtype adw2, UniProt P03159), entry CSc1ncc(C(N)=O)c(Nc2ccc3cn[nH]c3c2)n1
36%

Short answer please: inhibition at 0.01 µg/mL, HBV polymerase (Hepatitis B virus genotype A2 subtype adw2, UniProt P03159), entry CSc1ncc(C(=O)NCCO)c(Nc2ccc3[nH]ncc3c2)n1
48%

Short answer please: inhibition at 0.01 µg/mL, HBV polymerase (Hepatitis B virus genotype A2 subtype adw2, UniProt P03159), entry CCNC(=O)c1cnc(SC)nc1Nc1ccc2[nH]ncc2c1
20%

Short answer please: inhibition at 0.01 µg/mL, HBV polymerase (Hepatitis B virus genotype A2 subtype adw2, UniProt P03159), entry CSc1ncc(C(=O)NN2CCOCC2)c(Nc2ccc3[nH]ncc3c2)n1
46%

Short answer please: inhibition at 0.01 µg/mL, HBV polymerase (Hepatitis B virus genotype A2 subtype adw2, UniProt P03159), entry CSc1ncc(C(=O)N(C)CCO)c(Nc2ccc3[nH]ncc3c2)n1
30%

Short answer please: inhibition at 0.01 µg/mL, HBV polymerase (Hepatitis B virus genotype A2 subtype adw2, UniProt P03159), entry CSc1ncc(C(=O)NN2CCN(C)CC2)c(Nc2ccc3[nH]ncc3c2)n1
40%

Short answer please: inhibition at 0.01 µg/mL, HBV polymerase (Hepatitis B virus genotype A2 subtype adw2, UniProt P03159), entry CSc1ncc(C(=O)NCCCn2ccnc2)c(Nc2ccc3[nH]ncc3c2)n1
41%

Short answer please: inhibition at 0.01 µg/mL, HBV polymerase (Hepatitis B virus genotype A2 subtype adw2, UniProt P03159), entry CSc1ncc(C(=O)N2CCN(C)CC2)c(Nc2ccc3cn[nH]c3c2)n1
26%

Short answer please: inhibition at 0.01 µg/mL, HBV polymerase (Hepatitis B virus genotype A2 subtype adw2, UniProt P03159), entry CSc1ncc(C(=O)N(C)C)c(Nc2ccc3[nH]ncc3c2)n1
42%

Short answer please: inhibition at 0.01 µg/mL, HBV polymerase (Hepatitis B virus genotype A2 subtype adw2, UniProt P03159), entry CSc1ncc(C(=O)NC2CC2)c(Nc2ccc3cn[nH]c3c2)n1
24%

Short answer please: inhibition at 0.01 µg/mL, HBV polymerase (Hepatitis B virus genotype A2 subtype adw2, UniProt P03159), entry CSc1ncc(C(=O)NCCN(C)C)c(Nc2ccc3[nH]ncc3c2)n1
15%

Short answer please: inhibition at 0.01 µg/mL, HBV polymerase (Hepatitis B virus genotype A2 subtype adw2, UniProt P03159), entry COCCNC(=O)c1cnc(SC)nc1Nc1ccc2cn[nH]c2c1
25%

Short answer please: inhibition at 0.01 µg/mL, HBV polymerase (Hepatitis B virus genotype A2 subtype adw2, UniProt P03159), entry COC(=O)[C@@H](NC(=O)c1cnc(SC)nc1Nc1ccc2[nH]ncc2c1)[C@@H](C)O
18%

Short answer please: inhibition at 0.01 µg/mL, HBV polymerase (Hepatitis B virus genotype A2 subtype adw2, UniProt P03159), entry CSc1ncc(C(=O)N(C)C)c(Nc2ccc3cn[nH]c3c2)n1
10%
